# target_of_assay: UniProt:Q16740
# Sequence (Q16740 57-277): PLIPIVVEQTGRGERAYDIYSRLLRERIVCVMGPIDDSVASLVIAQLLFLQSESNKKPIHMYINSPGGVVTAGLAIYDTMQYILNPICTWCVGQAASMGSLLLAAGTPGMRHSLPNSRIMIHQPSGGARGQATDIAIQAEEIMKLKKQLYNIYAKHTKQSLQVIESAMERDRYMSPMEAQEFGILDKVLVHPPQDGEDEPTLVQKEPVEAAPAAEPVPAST
# assay_text: activating ClpP hydrolysis of FITC-casein (fluorescence kinetic detection)
# applied_conditions: hClpP 1 μM, FITC-Casein 4 μM, 37° C.
property_name: EC50

compound: O=c1c2c(c3cccnc3n1Cc1ccccc1)CCN(Cc1ccccc1F)C2 [Compound I-6]
property_name: EC50
result: 1 to 10 µM
--
compound: N#Cc1cccc(CN2CCc3c(c(=O)n(Cc4ccc(C(F)(F)F)cc4)c4cncn34)C2)c1 [Compound I-165]
property_name: EC50
result: 1 to 10 µM
--
compound: O=c1c2c(c3cccnc3n1Cc1cccc(Br)c1)CCN(Cc1ccccc1)C2 [Compound I-48]
property_name: EC50
result: < 1 µM
--
compound: Cc1ccc(Cn2c(=O)c3c(n4ccnc24)CCN(Cc2cccc(C)c2)C3)cc1 [Compound I-135]
property_name: EC50
result: < 1 µM
--
compound: O=c1c2c(c3cccnc3n1Cc1ccccc1)CCN(Cc1ccccn1)C2 [Compound I-27]
property_name: EC50
result: 10 to 100 µM
--
compound: O=c1c2c(n3ccnc3n1Cc1ccc(Cl)cc1)CCN(Cc1cccc(Cl)c1)C2 [Compound I-119]
property_name: EC50
result: < 1 µM
--
compound: N#Cc1cccc(CN2CCc3c(c(=O)n(Cc4ccc(F)cc4)c4ncccc34)C2)c1 [Compound I-84]
property_name: EC50
result: < 1 µM
--
compound: Cn1ccc(CN2CCc3c(c(=O)n(Cc4ccccc4)c4ncccc34)C2)n1 [Compound I-24]
property_name: EC50
result: 10 to 100 µM
